- TEST_SYSTEM: Integrin alpha-4/beta-1 (Homo sapiens, UniProt P05556+P13612)
- Sequence (P05556 whole entry): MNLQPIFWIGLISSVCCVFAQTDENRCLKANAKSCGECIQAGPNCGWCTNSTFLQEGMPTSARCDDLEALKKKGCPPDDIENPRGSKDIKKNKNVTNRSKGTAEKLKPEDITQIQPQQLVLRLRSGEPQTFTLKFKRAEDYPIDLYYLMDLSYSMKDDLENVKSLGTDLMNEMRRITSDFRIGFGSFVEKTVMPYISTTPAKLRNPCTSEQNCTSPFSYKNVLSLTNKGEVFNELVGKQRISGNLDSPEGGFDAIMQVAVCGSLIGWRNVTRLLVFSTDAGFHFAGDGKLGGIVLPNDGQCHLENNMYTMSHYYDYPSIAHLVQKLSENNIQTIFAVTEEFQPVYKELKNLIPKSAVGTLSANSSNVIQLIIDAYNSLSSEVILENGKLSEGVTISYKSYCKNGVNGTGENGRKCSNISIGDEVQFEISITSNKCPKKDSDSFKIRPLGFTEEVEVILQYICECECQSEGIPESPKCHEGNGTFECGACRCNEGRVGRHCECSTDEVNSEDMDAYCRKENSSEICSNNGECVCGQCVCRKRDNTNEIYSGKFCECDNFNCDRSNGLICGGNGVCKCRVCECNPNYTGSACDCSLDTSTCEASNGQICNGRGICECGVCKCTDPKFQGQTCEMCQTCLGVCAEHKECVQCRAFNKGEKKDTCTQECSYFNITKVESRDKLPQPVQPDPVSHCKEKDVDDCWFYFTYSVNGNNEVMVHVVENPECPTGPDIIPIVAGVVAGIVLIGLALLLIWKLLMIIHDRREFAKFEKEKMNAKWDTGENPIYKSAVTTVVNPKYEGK
- Sequence (P13612 whole entry): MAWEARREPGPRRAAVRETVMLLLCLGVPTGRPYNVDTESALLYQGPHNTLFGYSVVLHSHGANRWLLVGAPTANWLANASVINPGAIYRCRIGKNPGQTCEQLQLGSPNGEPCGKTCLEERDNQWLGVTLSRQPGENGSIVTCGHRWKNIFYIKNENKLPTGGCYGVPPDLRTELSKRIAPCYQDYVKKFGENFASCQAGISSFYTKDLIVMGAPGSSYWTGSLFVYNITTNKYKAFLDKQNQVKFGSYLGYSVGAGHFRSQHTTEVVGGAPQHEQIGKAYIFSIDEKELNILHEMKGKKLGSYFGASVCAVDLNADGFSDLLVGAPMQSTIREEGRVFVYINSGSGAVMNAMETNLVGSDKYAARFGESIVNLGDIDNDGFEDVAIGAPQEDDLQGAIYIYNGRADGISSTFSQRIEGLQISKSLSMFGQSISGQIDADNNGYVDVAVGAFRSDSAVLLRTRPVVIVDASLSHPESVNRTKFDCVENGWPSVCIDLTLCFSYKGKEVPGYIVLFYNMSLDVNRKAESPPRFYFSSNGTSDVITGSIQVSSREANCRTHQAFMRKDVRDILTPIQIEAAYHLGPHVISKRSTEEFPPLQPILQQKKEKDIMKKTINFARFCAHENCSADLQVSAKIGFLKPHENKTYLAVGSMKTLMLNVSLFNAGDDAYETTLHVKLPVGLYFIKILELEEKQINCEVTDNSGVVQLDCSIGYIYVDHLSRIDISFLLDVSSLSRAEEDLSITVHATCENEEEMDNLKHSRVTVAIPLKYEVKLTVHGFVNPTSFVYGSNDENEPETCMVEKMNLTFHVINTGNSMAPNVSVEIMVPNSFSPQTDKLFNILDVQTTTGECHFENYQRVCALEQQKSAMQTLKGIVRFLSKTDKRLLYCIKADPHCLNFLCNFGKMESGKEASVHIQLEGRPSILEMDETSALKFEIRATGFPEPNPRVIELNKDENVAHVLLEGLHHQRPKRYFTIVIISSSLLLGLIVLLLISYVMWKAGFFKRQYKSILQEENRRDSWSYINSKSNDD
- METHOD: Inhibition of integrin alpha-4-beta-1-VCAM interaction
Provide the reported IC50 of each item.

Record O=C1NC(=O)N(c2ccccc2-c2ccccc2)C(=O)/C1=C\c1c[nH]c2ccccc12 , field IC50: > 20 µM

The value of IC50 measured for the compound O=C1NC(=O)N(c2ccccc2)C(=O)/C1=C\c1ccco1 turned out to be > 20 µM

get_value(item= O=C1NC(=O)N(c2cccc3ccccc23)C(=O)/C1=C\c1c[nH]c2ccccc12 , readout=IC50) returns > 20 µM

====

- TEST_SYSTEM: Integrin alpha-4/beta-7 (Homo sapiens, UniProt P13612+P26010)
- Sequence (P13612 whole entry): as above
- Sequence (P26010 whole entry): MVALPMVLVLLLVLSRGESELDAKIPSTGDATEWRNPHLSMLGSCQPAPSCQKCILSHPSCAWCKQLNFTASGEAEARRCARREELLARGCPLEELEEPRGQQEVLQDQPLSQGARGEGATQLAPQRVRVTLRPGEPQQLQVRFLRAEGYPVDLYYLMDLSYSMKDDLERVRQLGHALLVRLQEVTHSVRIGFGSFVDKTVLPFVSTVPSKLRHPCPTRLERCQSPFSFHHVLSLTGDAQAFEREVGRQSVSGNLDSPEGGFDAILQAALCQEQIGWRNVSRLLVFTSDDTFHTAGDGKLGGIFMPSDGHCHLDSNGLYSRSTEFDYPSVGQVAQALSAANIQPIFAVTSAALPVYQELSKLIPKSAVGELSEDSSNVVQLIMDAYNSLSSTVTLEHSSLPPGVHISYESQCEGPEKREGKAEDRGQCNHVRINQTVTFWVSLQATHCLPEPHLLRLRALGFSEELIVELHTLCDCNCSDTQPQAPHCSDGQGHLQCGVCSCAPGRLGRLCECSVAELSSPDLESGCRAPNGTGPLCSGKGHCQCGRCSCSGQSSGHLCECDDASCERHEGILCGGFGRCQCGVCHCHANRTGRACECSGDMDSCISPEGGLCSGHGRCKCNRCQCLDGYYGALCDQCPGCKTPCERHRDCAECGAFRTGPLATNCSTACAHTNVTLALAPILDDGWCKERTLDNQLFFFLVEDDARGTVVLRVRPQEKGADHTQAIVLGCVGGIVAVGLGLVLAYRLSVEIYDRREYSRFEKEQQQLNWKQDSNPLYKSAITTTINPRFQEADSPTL
- METHOD: Inhibition of human integrin alpha-4-beta-7-MAdCAM interaction in human RPMI 8866 cells by whole-cell adhesion assay
Output schema: class label derived from IC50. Mapping: lower segment: < 0.9 µM; middle segment: ≥ 0.9 µM and < 6 µM; upper segment: ≥ 6 µM

Determine which band this compound sits in: Cn1cc(/C=C2/C(=O)NC(=O)N(c3ccccc3)C2=O)c2ccccc21
middle segment

Class (by measured IC50) for CN1C(=O)/C(=C/c2c[nH]c3ccccc23)C(=O)N(c2cccc3ccccc23)C1=O
middle segment

Class (by measured IC50) for O=C1NC(=O)N(c2ccc(Cl)cc2)C(=O)/C1=C\c1ccccc1
middle segment

Band for O=C1NC(=O)N(c2cccc3ccccc23)C(=O)/C1=C\c1c[nH]c2ccccc12 ?
lower segment

Hi, small favor: classify CC(C)(C)N1C(=O)NC(=O)/C(=C/c2c[nH]c3ccccc23)C1=O by its IC50 when you get a moment.
upper segment

Band of O=C(/C=C1/C(=O)NC(=O)N(c2ccccc2)C1=O)/C=C/c1ccccc1 ?
upper segment

Each compound maps to one class by IC50. Which class for Cn1cc(/C=C2/C(=O)NC(=O)N(c3cccc4ccccc34)C2=O)c2ccccc21 ?
lower segment

Which class holds O=C1NC(=O)N(c2ccccc2)C(=O)/C1=C\c1cc2ccccc2[nH]1 ?
upper segment

Dear colleague, I would appreciate it if you could identify the bin for O=C1NC(=O)N(c2cc(Cl)cc(Cl)c2)C(=O)/C1=C\c1ccccc1 and reply at your convenience.
middle segment
